Answer each item with its documented IC50.
Molecular target: HLA-B07.02 (Homo sapiens)
Test: Class I MHC peptide binding affinity (displacement of radiolabeled reference peptide)
Details: Allele B07.02; read-out: Observed Affinity (IC50; (nM))
Where a SMILES comes first, the peptide text is derived from it.
Form entry: value (nM) — number only.

Asked: IC50 for CC(C)C[C@H](NC(=O)[C@@H]1CCCN1C(=O)[C@@H]1CCCN1C(=O)[C@@H](NC(=O)[C@@H](NC(=O)[C@H](Cc1c[nH]c2ccccc12)NC(=O)[C@H](CC(C)C)NC(=O)[C@@H](NC(=O)[C@@H]1CCCN1C(=O)[C@@H](N)CCC(N)=O)C(C)C)[C@@H](C)O)[C@@H](C)O)C(=O)O (H-QPVLWTTPPL-OH; N-terminus and C-terminus assumed) ?
Given back: 109

Asked: IC50 for CC[C@H](C)[C@H](NC(=O)[C@H](CC(N)=O)NC(=O)[C@@H](NC(=O)[C@H](CC(=O)O)NC(=O)[C@H](CCCCN)NC(=O)[C@@H]1CCCN1C(=O)[C@@H](N)CCSC)C(C)C)C(=O)N[C@@H](CCC(N)=O)C(=O)N[C@H](C(=O)O)C(C)C ?
Given back: 12.5

Asked: IC50 for CC(C)C[C@H](NC(=O)[C@H](C)NC(=O)[C@H](CC(C)C)NC(=O)[C@H](Cc1c[nH]cn1)NC(=O)[C@@H]1CCCN1C(=O)[C@H](CCC(=O)O)NC(=O)[C@@H]1CCCN1C(=O)[C@H](CC(C)C)NC(=O)[C@@H](NC(=O)[C@@H](N)Cc1c[nH]cn1)C(C)C)C(=O)O [HVLPEPHLAL] (H-HVLPEPHLAL-OH; N-terminus and C-terminus assumed) ?
Given back: 1330

Asked: IC50 for CC(C)C[C@H](NC(=O)[C@H](CC(=O)O)NC(=O)[C@H](Cc1ccccc1)NC(=O)[C@@H]1CCCN1C(=O)[C@@H](NC(=O)[C@H](C)NC(=O)[C@@H]1CCCN1C(=O)[C@@H](N)C(C)C)C(C)C)C(=O)N[C@@H](Cc1c[nH]cn1)C(=O)N[C@@H](Cc1ccccc1)C(=O)O (H-VPAVPFDLHF-OH; N-terminus and C-terminus assumed) ?
Given back: 2110

Asked: IC50 for CSCC[C@H](NC(=O)[C@H](Cc1ccc(O)cc1)NC(=O)CNC(=O)[C@H](CC(=O)O)NC(=O)[C@H](CCCNC(=N)N)NC(=O)[C@H](CCCCN)NC(=O)[C@@H]1CCCN1C(=O)[C@@H](N)CCCCN)C(=O)N[C@@H](Cc1ccccc1)C(=O)O (H-KPKRDGYMF-OH; N-terminus and C-terminus assumed) ?
Given back: 28.2

Asked: IC50 for CC(C)C[C@H](N)C(=O)N1CCC[C@H]1C(=O)N[C@@H](CCCNC(=N)N)C(=O)N[C@@H](CCCCN)C(=O)N1CCC[C@H]1C(=O)N[C@H](C(=O)N[C@@H](CCCNC(=N)N)C(=O)N[C@@H](C)C(=O)N[C@@H](C)C(=O)N[C@H](C(=O)O)[C@@H](C)O)[C@@H](C)O (H-LPRKPTRAAT-OH; N-terminus and C-terminus assumed) ?
Given back: 3

* * *

Biological target: HLA-A02.01 (Homo sapiens, UniProt P04439, D140Y/D185E/D98H/E176V/E277Q/G131W/G231S/I119V/I121R/I166T/I218V/N151K/N90K/P208A/P217A/Q86G/Q94H/R138H/R169H)
Construct: made in house; host or cells: E. coli
Assay: Class I MHC peptide binding stability (pMHC-I dissociation, 125I-labeled light chain)
Conditions: allele A02.01
Where a SMILES comes first, the peptide text is derived from it.
Answer each item with its documented Stability (T1/2 (h)).
Form entry: value (h) — number only.

Asked: Stability (T1/2 (h)) for CC[C@H](C)[C@H](NC(=O)[C@@H]1CCCN1C(=O)[C@H](CCCNC(=N)N)NC(=O)[C@H](Cc1c[nH]c2ccccc12)NC(=O)[C@H](CC(N)=O)NC(=O)[C@H](CCSC)NC(=O)CNC(=O)CNC(=O)[C@H](CCSC)NC(=O)[C@@H](N)CS)C(=O)O ?
Given back: 0.4

Asked: Stability (T1/2 (h)) for CC[C@H](C)[C@H](NC(=O)[C@@H](NC(=O)[C@@H](NC(=O)[C@H](CC(C)C)NC(=O)[C@@H](NC(=O)[C@@H]1CCCN1C(=O)[C@H](CCCNC(=N)N)NC(=O)[C@H](Cc1c[nH]c2ccccc12)NC(=O)[C@H](CC(N)=O)NC(=O)[C@@H](N)CCSC)[C@@H](C)CC)[C@@H](C)O)[C@@H](C)CC)C(=O)O (H-MNWRPILTII-OH; N-terminus and C-terminus assumed) ?
Given back: 0.4

Asked: Stability (T1/2 (h)) for CC(C)C[C@H](NC(=O)[C@@H](N)CCCCN)C(=O)NCC(=O)NCC(=O)NCC(=O)N[C@@H](CCC(N)=O)C(=O)N[C@@H](Cc1c[nH]cn1)C(=O)NCC(=O)N[C@@H](CCC(=O)O)C(=O)N[C@H](C(=O)O)C(C)C (H-KLGGGQHGEV-OH; N-terminus and C-terminus assumed) ?
Given back: 0.4

* * *

Target: HLA-A02.01 (Homo sapiens, UniProt P04439, D140Y/D185E/D98H/E176V/E277Q/G131W/G231S/I119V/I121R/I166T/I218V/N151K/N90K/P208A/P217A/Q86G/Q94H/R138H/R169H)
Construct: made in house; host or cells: E. coli
Test: Class I MHC peptide binding stability (pMHC-I dissociation, 125I-labeled light chain)
Details: allele A02.01
Where a SMILES comes first, the peptide text is derived from it.
Binary label based on Stability (T1/2 (h)) with cut-off 5 h: below gives Yes, not below gives No.

Asked: For this compound, is Stability (T1/2 (h)) lower than 5 h? CSCC[C@H](NC(=O)[C@H](CCC(=O)O)NC(=O)[C@H](CC(C)C)NC(=O)[C@H](CC(C)C)NC(=O)[C@H](CC(C)C)NC(=O)CN)C(=O)N[C@@H](CC(C)C)C(=O)N[C@@H](CC(=O)O)C(=O)N[C@@H](C)C(=O)O (H-GLLLEMLDA-OH; N-terminus and C-terminus assumed)
Given back: Yes

Asked: For this compound, is Stability (T1/2 (h)) lower than 5 h? CSCC[C@H](NC(=O)[C@@H](NC(=O)[C@H](Cc1ccc(O)cc1)NC(=O)[C@H](C)NC(=O)[C@H](CCSC)NC(=O)[C@@H](NC(=O)[C@@H](N)Cc1ccc(O)cc1)C(C)C)C(C)C)C(=O)N[C@@H](C)C(=O)NCC(=O)N[C@H](C(=O)O)C(C)C
Given back: No

Asked: For this compound, is Stability (T1/2 (h)) lower than 5 h? CC(C)C[C@H](NC(=O)[C@@H]1CCCN1C(=O)[C@H](CS)NC(=O)[C@H](CC(C)C)NC(=O)[C@H](Cc1c[nH]cn1)NC(=O)[C@H](CC(N)=O)NC(=O)CNC(=O)[C@H](CC(C)C)NC(=O)[C@@H](N)CO)C(=O)O
Given back: Yes

Asked: For this compound, is Stability (T1/2 (h)) lower than 5 h? CC[C@H](C)[C@H](NC(=O)[C@H](Cc1ccc(O)cc1)NC(=O)[C@H](CC(C)C)NC(=O)[C@@H](N)CC(C)C)C(=O)N[C@H](C(=O)N[C@@H](C)C(=O)N[C@@H](Cc1ccccc1)C(=O)N[C@@H](Cc1ccccc1)C(=O)N[C@@H](CC(C)C)C(=O)O)[C@@H](C)O
Given back: No

* * *

Molecular target: HLA-A02.01 (Homo sapiens, UniProt P04439, D140Y/D185E/D98H/E176V/E277Q/G131W/G231S/I119V/I121R/I166T/I218V/L300P/L318F/N151K/N90K/P208A/P217A/Q86G/Q94H/R138H/R169H/T345S)
Test: Class I MHC peptide binding affinity (displacement of radiolabeled reference peptide)
Details: allele A02.01; read-out: Observed Affinity (IC50; (nM))
Where a SMILES comes first, the peptide text is derived from it.
Binary label based on IC50 with cut-off 300 nM: below gives Met, not below gives Not met.

Asked: For this molecule, is IC50 lower than 300 nM? CSCC[C@H](NC(=O)[C@@H](N)CO)C(=O)N[C@@H](CC(C)C)C(=O)N[C@H](C(=O)N[C@@H](CC(=O)O)C(=O)N[C@@H](CO)C(=O)N[C@@H](CC(C)C)C(=O)N[C@@H](Cc1ccccc1)C(=O)N[C@@H](CC(C)C)C(=O)O)[C@@H](C)O (H-SMLTDSLFL-OH; N-terminus and C-terminus assumed)
Given back: Met

Asked: For this molecule, is IC50 lower than 300 nM? CSCC[C@H](NC(=O)[C@H](CC(C)C)NC(=O)[C@H](CCCCN)NC(=O)[C@@H](N)CCCCN)C(=O)N[C@@H](CC(C)C)C(=O)N[C@@H](CC(C)C)C(=O)N[C@@H](CCCNC(=N)N)C(=O)N[C@@H](CC(C)C)C(=O)N[C@@H](CC(N)=O)C(=O)N[C@@H](CC(C)C)C(=O)O (H-KKLMLLRLNL-OH; N-terminus and C-terminus assumed)
Given back: Met

Asked: For this molecule, is IC50 lower than 300 nM? CC[C@H](C)[C@H](NC(=O)[C@@H]1CCCN1C(=O)[C@H](CCCNC(=N)N)NC(=O)[C@H](Cc1c[nH]c2ccccc12)NC(=O)[C@H](CC(N)=O)NC(=O)[C@H](CCSC)NC(=O)CNC(=O)CNC(=O)[C@H](CCSC)NC(=O)[C@@H](N)CS)C(=O)O
Given back: Not met

Asked: For this molecule, is IC50 lower than 300 nM? CC(C)C[C@H](NC(=O)[C@H](Cc1ccccc1)NC(=O)[C@H](CO)NC(=O)[C@H](CC(C)C)NC(=O)[C@H](CS)NC(=O)[C@H](CO)NC(=O)[C@H](Cc1ccccc1)NC(=O)[C@H](CC(C)C)NC(=O)[C@@H](N)CCCCN)C(=O)O (H-KLFSCLSFL-OH; N-terminus and C-terminus assumed)
Given back: Met

Asked: For this molecule, is IC50 lower than 300 nM? CSCC[C@H](N)C(=O)N[C@@H](C)C(=O)N[C@@H](CC(N)=O)C(=O)NCC(=O)N[C@@H](CO)C(=O)N[C@@H](CC(C)C)C(=O)N[C@@H](CC(C)C)C(=O)N[C@@H](CC(N)=O)C(=O)N[C@@H](Cc1ccc(O)cc1)C(=O)N[C@@H](CC(C)C)C(=O)O
Given back: Not met

Values from patent US20220282217A1
